Measured values drawn from ChEMBL document CHEMBL1123882 for this set.

# Test system: P388
# procedure summary: Average increase in life span of treated animals over control groups of tumor-bearing untreated animals when given at optimal dose (in vivo)
# Assay type: functional, Mus musculus
Please respond with 1 when measured ILS max is strictly beneath 60, and with 0 in all other cases.

## Input Just wondering, is ILS max of CN(C)CCNC(=O)c1cccc2nc3ccc(Cl)cc3nc12 below 60?
## Output 0

## Input Just wondering, is ILS max of CN(C)CCNC(=O)c1cccc2nc3ccccc3nc12 below 60?
## Output 0

## Input Just wondering, is ILS max of COc1cccc2nc3cccc(C(=O)NCCN(C)C)c3nc12 below 60?
## Output 0

Continuing:
## Input Just wondering, is ILS max of Cc1cc(C(=O)NCCN(C)C)c2nc3ccccc3nc2c1 below 60?
## Output 0

## Input Just wondering, is ILS max of CN(C)CCNC(=O)c1cccc2nc3c(Cl)cccc3nc12 below 60?
## Output 1
